B1: RSPH3 (parent)
chain: FIPAKTGKDVATQILEGELFDFDL

variants of: B1; assay: protein stability index of a GFP-peptide fusion (GPS, HEK-293T) (PSI 1-6); higher = more stable; details: c terminus: a fixed tail appended;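 further: lentivirally expressed fusions sorted by FACS into six bins by GFP to DsRed ratio, PSI derived from sequencing read proportions per bin multiplied by bin number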
quantityKind: protein stability index
Just the number, please.

Would you please look over these solved cases?
{"biopolymerSequence": "FIPAKTGKDVARQILEGELFDFDL [T12R]", "protein stability index": 2.55}
{"biopolymerSequence": "FIPAKTGKDVATQIPEGELFDFDL [L15P]", "protein stability index": 2.02}
{"biopolymerSequence": "FIPAKTGKDVATQILEGELFDFYL [D23Y]", "protein stability index": 2.24}
{"biopolymerSequence": "FIPAKTGKDVATQILEGELFDFDQ [L24Q]", "protein stability index": 2.7}
{"biopolymerSequence": "FIPAKTGKDVATQILEGELFDFDK [L24K]", "protein stability index": 2.79}
{"biopolymerSequence": "FIPAKTGKDVATQILEGEGFDFDL [L19G]", "protein stability index": 2.31}
{"biopolymerSequence": "FIPAKTGKDVATQILEGELFNFDL [D21N]", "protein stability index": 1.53}
{"biopolymerSequence": "FIPAKTGKDVATQILEGELFDFNL [D23N]", "protein stability index": 1.84}

// Input: FIPAKTGKDVATGILEGELFDFDL [Q13G] . Output its protein stability index only. 2.65

// Input: FIPAKTGKDVSTQILEGELFDFDL [A11S] . Output its protein stability index only. 1.87

// Input: FIPAKTGKDVATQILEGELFDDDL [F22D] . Output its protein stability index only. 3.7

// Input: FIPAKTGKDVATQILEKELFDFDL [G17K] . Output its protein stability index only. 1.93

// Input: FIPAKTGKDVAVQILEGELFDFDL [T12V] . Output its protein stability index only. 2.98

// Input: FDPAKTGKDVATQILEGELFDFDL [I2D] . Output its protein stability index only. 4.39

// Input: FIPQKTGKDVATQILEGELFDFDL [A4Q] . Output its protein stability index only. 2.05

// Input: FIPAKTGKDVATQILEGELFDFPL [D23P] . Output its protein stability index only. 2.08

// Input: FIPAKTGKDVATQILEGELFKFDL [D21K] . Output its protein stability index only. 1.96

// Input: FIPAKTGKDVATQILEGELFDFVL [D23V] . Output its protein stability index only. 1.59

// Input: FVPAKTGKDVATQILEGELFDFDL [I2V] . Output its protein stability index only. 2.26

// Input: FIPAKTGKDVATQPLEGELFDFDL [I14P] . Output its protein stability index only. 2.21

// Input: FIPAMTGKDVATQILEGELFDFDL [K5M] . Output its protein stability index only. 1.87

// Input: FIPAKTGKDVATQIKEGELFDFDL [L15K] . Output its protein stability index only. 2.07
